- Measurement description: Absorption rate from the digestive tract (urinary and biliary recovery after oral administration)
- Format: in vivo
- Experimental conditions: urine and bile, rat, 50 mg/kg, urine + bile, bioassay, read-out: Recovery Rate (%) within 24 hours Total
Value kind: dose excreted at 24 h

GET /value?item= CC(=O)OC(C)OC(=O)C1=C(C2SCCS2)CS[C@@H]2C(NC(=O)/C(=N\O)c3csc(N)n3)C(=O)N12 (stereo partly shown) [Example 2] &field=dose excreted at 24 h returns 22.6%

---

- Measurement description: Absorption rate from the digestive tract (urinary and biliary recovery after oral administration)
- Assay type: in vivo
- Experimental conditions: rat, 50 mg/kg, urine, bioassay, read-out: Recovery Rate (%) within 24 hours In the Urine
Value kind: dose excreted at 24 h (%)
The answer is to be given in %; state only the numeric part.

GET /value?item= CC(=O)OC(C)OC(=O)C1=C(C2SCCS2)CS[C@@H]2C(NC(=O)/C(=N\O)c3csc(N)n3)C(=O)N12 (stereo partly shown) &field=dose excreted at 24 h returns 14.1
